target: T1, human CD33 extracellular domain (human, UniProt P20138 18-259); test: SPR, Fab captured, 37C;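 further: Anti-CD33 Fabs captured on anti-Fab chip, soluble monomeric CD33 or its domains flowed over at several concentrations, double-referenced data fitted 1:1, Kd taken as koff/kon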
T1 construct: soluble monomeric ECD; also called human CD33 ECD; hCD33
propertyLabel: kon (M⁻¹ s⁻¹)

INSERT INTO measurements (binder, testresult) VALUES
  ('ADI-10164 Fab (Fab, V domains shown, Fab fragment; also called Ab18) VH: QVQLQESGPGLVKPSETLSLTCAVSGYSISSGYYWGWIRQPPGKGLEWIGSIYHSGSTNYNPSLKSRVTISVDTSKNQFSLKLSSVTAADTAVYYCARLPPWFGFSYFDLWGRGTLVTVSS VL: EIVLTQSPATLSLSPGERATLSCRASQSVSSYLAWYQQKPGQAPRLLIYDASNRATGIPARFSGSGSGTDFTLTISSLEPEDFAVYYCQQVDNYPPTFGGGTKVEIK', 319000),
  ('ADI-10157 Fab (Fab, V domains shown, Fab fragment; also called Ab13) VH: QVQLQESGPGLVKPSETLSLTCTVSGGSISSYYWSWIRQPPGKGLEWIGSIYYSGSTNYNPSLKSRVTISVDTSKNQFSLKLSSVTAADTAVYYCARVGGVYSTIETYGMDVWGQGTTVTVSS VL: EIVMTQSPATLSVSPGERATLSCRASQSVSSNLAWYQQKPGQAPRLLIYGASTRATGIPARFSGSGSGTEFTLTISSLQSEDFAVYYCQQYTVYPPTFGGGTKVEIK', '2.82e+06'),
  ('ADI-11819 Fab (Fab, V domains shown, Fab fragment; also called Ab8) VH: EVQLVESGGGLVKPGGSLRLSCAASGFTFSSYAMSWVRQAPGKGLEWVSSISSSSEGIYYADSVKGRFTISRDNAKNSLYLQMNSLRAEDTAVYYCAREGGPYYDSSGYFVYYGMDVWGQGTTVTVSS VL: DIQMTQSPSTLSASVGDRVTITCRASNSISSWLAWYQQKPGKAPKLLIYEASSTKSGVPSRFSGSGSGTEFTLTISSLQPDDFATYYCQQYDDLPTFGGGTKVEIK', '2.84e+06'),
  ('ADI-11809 Fab (Fab, V domains shown, Fab fragment; also called Ab6) VH: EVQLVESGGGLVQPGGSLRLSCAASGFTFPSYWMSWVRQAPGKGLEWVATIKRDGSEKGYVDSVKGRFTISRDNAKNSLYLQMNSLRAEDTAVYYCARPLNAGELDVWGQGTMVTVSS VL: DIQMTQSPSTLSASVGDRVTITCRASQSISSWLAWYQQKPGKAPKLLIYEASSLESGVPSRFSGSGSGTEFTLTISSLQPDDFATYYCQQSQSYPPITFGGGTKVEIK', '1.02e+06');

Cited source: patent US20220380459A1
